Data origin: patent EP2975033A1

Hi there, I'd appreciate the recorded pIC50 for every entry that follows.
# experimentalSystem: cruzain (CR) (Trypanosoma cruzi, UniProt P25779)
# Sequence (P25779 123-467): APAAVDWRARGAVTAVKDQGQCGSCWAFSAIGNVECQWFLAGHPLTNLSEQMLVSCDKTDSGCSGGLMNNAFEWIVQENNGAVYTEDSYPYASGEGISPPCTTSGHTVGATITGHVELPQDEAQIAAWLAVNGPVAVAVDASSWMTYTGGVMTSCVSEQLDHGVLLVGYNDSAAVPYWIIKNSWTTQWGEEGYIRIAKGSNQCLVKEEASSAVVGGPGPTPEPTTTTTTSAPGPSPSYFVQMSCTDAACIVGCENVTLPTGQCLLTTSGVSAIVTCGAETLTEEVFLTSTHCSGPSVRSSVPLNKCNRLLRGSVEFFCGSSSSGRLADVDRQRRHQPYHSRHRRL
# assayMethodText: In vitro inhibition of cruzain, fluorescence of Z-Phe-Arg-AMC breakdown
# Format: biochemical
To interpret pIC50, take it as minus log10 of a concentration measured in moles per litre.

*Q* Give pIC50 for the following compound: `CCOC(=O)/C=C/[C@@H](O)[C@H](CCc1ccccc1)NC(=O)[C@H](Cc1ccccc1)NC(=O)N1CCOCC1`
*A* 5.43

*Q* Give pIC50 for the following compound: `CCOC(=O)/C=C/C(=O)[C@H](C)NC(=O)[C@H](CC(C)C)NC(=O)OCc1ccccc1`
*A* 6.20

*Q* Give pIC50 for the following compound: `CCOC(=O)/C=C/C(=O)[C@H](C)NC(=O)[C@H](Cc1ccccc1)NC(=O)OCc1ccccc1`
*A* 6.54

*Q* Give pIC50 for the following compound: CCOC(=O)/C=C/C(=O)[C@H](CCc1ccccc1)NC(=O)[C@H](CC(C)C)NC(=O)OCc1ccccc1 [drawing 39]
*A* 7.11

*Q* Give pIC50 for the following compound: `CC(C)C[C@H](NC(=O)[C@H](Cc1ccccc1)NC(=O)OCc1ccccc1)C(=O)/C=C/S(=O)(=O)c1ccccc1`
*A* 7.95

*Q* Give pIC50 for the following compound: `CCOC(=O)/C=C/C(=O)[C@H](CC(C)C)NC(=O)[C@H](Cc1ccccc1)NC(=O)OCc1ccccc1`
*A* 7.79

###

# experimentalSystem: Cathepsin L (human) (Homo sapiens)
# Construct: Cathepsin L (human liver) Calbiochem; purchased Calbiochem; host or cells: human liver (tissue-derived)
# Sequence (P07711 114-333): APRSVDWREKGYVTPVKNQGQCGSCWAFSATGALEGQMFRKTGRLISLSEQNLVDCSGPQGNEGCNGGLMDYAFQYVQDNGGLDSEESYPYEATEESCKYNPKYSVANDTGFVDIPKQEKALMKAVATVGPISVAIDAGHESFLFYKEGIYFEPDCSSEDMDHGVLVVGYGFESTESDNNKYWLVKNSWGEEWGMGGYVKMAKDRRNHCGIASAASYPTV
# assayMethodText: Protease assay, fluorogenic substrate Z-Phe-Arg-AMC: Cathepsin L
# Type: biochemical
# experimentalSetup: read-out: CL(IC50); CL=CathepsinL; 25 °C, pH 6.5, 6,25 µM substrate
property: pIC50
To interpret pIC50, take it as minus log10 of a concentration measured in moles per litre.

*Q* Recall the reported pIC50 of CCOC(=O)/C=C/C(=O)[C@H](CCc1ccccc1)NC(=O)[C@H](CC(C)C)NC(=O)OCc1ccccc1 [drawing 39] when tested on Cathepsin L (human) (Homo sapiens).
*A* 6.59

*Q* Recall the reported pIC50 of `CC(C)C[C@H](NC(=O)[C@H](Cc1ccccc1)NC(=O)OCc1ccccc1)C(=O)/C=C/S(=O)(=O)c1ccccc1` when tested on Cathepsin L (human) (Homo sapiens).
*A* 8.00

*Q* Recall the reported pIC50 of `CCOC(=O)/C=C/C(=O)[C@H](CC(C)C)NC(=O)[C@H](Cc1ccccc1)NC(=O)OCc1ccccc1` when tested on Cathepsin L (human) (Homo sapiens).
*A* 8.02

*Q* Recall the reported pIC50 of `CCOC(=O)/C=C/C(=O)[C@H](C)NC(=O)[C@H](Cc1ccccc1)NC(=O)OCc1ccccc1` when tested on Cathepsin L (human) (Homo sapiens).
*A* 7.05

*Q* Recall the reported pIC50 of `CCOC(=O)/C=C/C(=O)[C@H](C)NC(=O)[C@H](CC(C)C)NC(=O)OCc1ccccc1` when tested on Cathepsin L (human) (Homo sapiens).
*A* 6.26

###

# experimentalSystem: Cathepsin B (human) (Homo sapiens, UniProt P07858)
# Construct: Cathepsin B (human liver) Calbiochem; purchased Calbiochem; host or cells: human liver (tissue-derived)
# assayMethodText: Protease assay, fluorogenic substrate Z-Phe-Arg-AMC: Cathepsin B
# Assay type: biochemical
# experimentalSetup: CB=CathepsinB; 25 °C, pH 6.5, 100 µM substrate; read-out: CBIC50micM
# Excerpt: 2.1.1. Protease Assays as shown in tables 1 and 2: Cathepsin L (human), Cathepsin B (human), Rhodesain (Trypanosoma brucei rhodesiense), Falcipain 2 (Plasmodium falciparum) Enzyme assays used to identify inhibitors of the target cysteine proteases. The effect is detected measuring fluorescence increase due to hydrolysis of fluorogenic substrates by the target enzymes in absence and presence of potential inhibitors. • a. […] Measurement device: Tecan Fluorescence spectrophotometer infinite F200 Pro • f. […]
Binarize IC50 at 70 nM; below is Condition met, at or above is Condition not met.

*Q* For this compound, is IC50 lower than 70 nM? `CCOC(=O)/C=C/C(=O)[C@H](C)NC(=O)[C@H](Cc1ccccc1)NC(=O)OCc1ccccc1`
*A* Condition not met

*Q* For this compound, is IC50 lower than 70 nM? `CCOC(=O)/C=C/[C@@H](O)[C@H](CCc1ccccc1)NC(=O)[C@H](Cc1ccccc1)NC(=O)N1CCOCC1`
*A* Condition not met

*Q* For this compound, is IC50 lower than 70 nM? CCOC(=O)/C=C/C(=O)[C@H](CCc1ccccc1)NC(=O)[C@H](CC(C)C)NC(=O)OCc1ccccc1 [drawing 39]
*A* Condition met

*Q* For this compound, is IC50 lower than 70 nM? `CCOC(=O)/C=C/[C@@H](O)[C@H](CCc1ccccc1)NC(=O)[C@H](Cc1ccccc1)NC(=O)OCc1ccccc1`
*A* Condition not met

###

# experimentalSystem: Cathepsin L (human) (Homo sapiens)
# Construct: Cathepsin L (human liver) Calbiochem; purchased Calbiochem; host or cells: human liver (tissue-derived)
# assayMethodText: Protease assay, fluorogenic substrate Z-Phe-Arg-AMC: Cathepsin L
# Type: biochemical
# experimentalSetup: CL=CathepsinL; 25 °C, pH 6.5, 6,25 µM substrate; read-out: CL(IC50)
property: log10(IC50) (log10 of the value in µM)
Each number you see is log10 of IC50, and the unit inside the log is µM.

*Q* Give log10(IC50) for the following molecule: `CCOC(=O)/C=C/[C@@H](O)[C@H](C)NC(=O)[C@H](Cc1ccccc1)NC(=O)OCc1ccccc1`
*A* 1.16

*Q* Give log10(IC50) for the following molecule: `O=C(O)/C=C/[C@@H](O)[C@H](CCc1ccccc1)NC(=O)[C@H](Cc1ccccc1)NC(=O)OCc1ccccc1`
*A* 1.30

*Q* Give log10(IC50) for the following molecule: CCOC(=O)/C=C/C(=O)[C@H](CCc1ccccc1)NC(=O)[C@H](Cc1ccccc1)NC(=O)OCc1ccccc1 [drawing 38]
*A* -1.30

*Q* Give log10(IC50) for the following molecule: `CCOC(=O)/C=C/[C@@H](O)[C@H](CCc1ccccc1)NC(=O)[C@H](Cc1ccccc1)NC(=O)N1CCOCC1`
*A* 0.39

*Q* Give log10(IC50) for the following molecule: `CCOC(=O)/C=C/[C@@H](O)[C@H](CCc1ccccc1)NC(=O)[C@H](Cc1ccccc1)NC(=O)OCc1ccccc1`
*A* 1.11

###

# experimentalSystem: Cathepsin B (human) (Homo sapiens, UniProt P07858)
# Construct: Cathepsin B (human liver) Calbiochem; purchased Calbiochem; host or cells: human liver (tissue-derived)
# assayMethodText: Protease assay, fluorogenic substrate Z-Phe-Arg-AMC: Cathepsin B
# Format: biochemical
# experimentalSetup: CB=CathepsinB
Hi there, I'd appreciate the recorded CB(K2nd(M-1s-1)) for every entry that follows.

*Q* Give CB(K2nd(M-1s-1)) for the following compound: `CCOC(=O)/C=C/C(=O)[C@H](C)NC(=O)[C@H](CC(C)C)NC(=O)OCc1ccccc1`
*A* 85470 M⁻¹ s⁻¹

*Q* Give CB(K2nd(M-1s-1)) for the following compound: `CCOC(=O)/C=C/C(=O)[C@H](C)NC(=O)[C@H](Cc1ccccc1)NC(=O)OCc1ccccc1`
*A* 4738 M⁻¹ s⁻¹

*Q* Give CB(K2nd(M-1s-1)) for the following compound: CCOC(=O)C=CC(O)C(CCc1ccccc1)NC(=O)C(Cc1ccccc1)NC(=O)OCc1ccccc1 (single isomer, unassigned)
*A* 14 M⁻¹ s⁻¹

*Q* Give CB(K2nd(M-1s-1)) for the following compound: CCOC(=O)/C=C/C(=O)[C@H](CCc1ccccc1)NC(=O)[C@H](Cc1ccccc1)NC(=O)OCc1ccccc1 [drawing 38]
*A* 45486 M⁻¹ s⁻¹

###

# experimentalSystem: Cathepsin B (human) (Homo sapiens)
# Construct: Cathepsin B (human liver) Calbiochem; purchased Calbiochem; host or cells: human liver (tissue-derived)
# assayMethodText: Protease assay, fluorogenic substrate Z-Phe-Arg-AMC: Cathepsin B
# Format: biochemical
# experimentalSetup: read-out: CBIC50micM; CB=CathepsinB; 25 °C, pH 6.5, 100 µM substrate
Hi there, I'd appreciate the recorded pIC50 for every entry that follows.
To interpret pIC50, take it as minus log10 of a concentration measured in moles per litre.

*Q* Give pIC50 for the following compound: `CCOC(=O)/C=C/C(=O)[C@H](CC(C)C)NC(=O)[C@H](Cc1ccccc1)NC(=O)OCc1ccccc1`
*A* 7.28

*Q* Give pIC50 for the following compound: `CC(C)C[C@H](NC(=O)[C@H](Cc1ccccc1)NC(=O)OCc1ccccc1)C(=O)/C=C/S(=O)(=O)c1ccccc1`
*A* 7.30

###

# experimentalSystem: Rhodesain (Trypanosoma brucei rhodesiense)
# Construct: made in house
# Sequence (Q95PM0 entry or part of it): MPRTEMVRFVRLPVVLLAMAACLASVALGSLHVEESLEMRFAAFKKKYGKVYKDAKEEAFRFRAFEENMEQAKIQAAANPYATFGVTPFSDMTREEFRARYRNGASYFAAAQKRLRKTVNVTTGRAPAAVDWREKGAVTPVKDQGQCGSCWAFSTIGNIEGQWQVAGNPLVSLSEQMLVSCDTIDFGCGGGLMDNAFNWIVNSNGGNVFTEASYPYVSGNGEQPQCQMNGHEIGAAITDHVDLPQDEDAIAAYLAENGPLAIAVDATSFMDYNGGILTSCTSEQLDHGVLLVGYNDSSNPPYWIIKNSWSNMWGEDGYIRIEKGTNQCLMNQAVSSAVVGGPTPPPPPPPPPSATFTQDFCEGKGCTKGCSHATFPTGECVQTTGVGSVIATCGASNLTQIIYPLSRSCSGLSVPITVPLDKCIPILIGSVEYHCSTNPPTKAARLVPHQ
# assayMethodText: Protease assay, fluorogenic substrate Z-Phe-Arg-AMC: Rhodesain
# Assay type: biochemical
Hi there, I'd appreciate the recorded RD(K2nd(M-1s-1)) for every entry that follows.
Give the value, in units of M⁻¹ s⁻¹, as a plain number.

*Q* Give RD(K2nd(M-1s-1)) for the following molecule: `CCOC(=O)/C=C/C(=O)[C@H](C)NC(=O)[C@H](CC(C)C)NC(=O)OCc1ccccc1`
*A* 14207

*Q* Give RD(K2nd(M-1s-1)) for the following molecule: CCOC(=O)/C=C/C(=O)[C@H](CCc1ccccc1)NC(=O)[C@H](CC(C)C)NC(=O)OCc1ccccc1 [drawing 39]
*A* 116147

*Q* Give RD(K2nd(M-1s-1)) for the following molecule: `CCOC(=O)/C=C/[C@@H](O)[C@H](C)NC(=O)[C@H](Cc1ccccc1)NC(=O)OCc1ccccc1`
*A* 10951

*Q* Give RD(K2nd(M-1s-1)) for the following molecule: CCOC(=O)/C=C/C(=O)[C@H](CCc1ccccc1)NC(=O)[C@H](Cc1ccccc1)NC(=O)OCc1ccccc1 [drawing 38]
*A* 1274510

*Q* Give RD(K2nd(M-1s-1)) for the following molecule: `CCOC(=O)/C=C/C(=O)[C@H](CC(C)C)NC(=O)[C@H](Cc1ccccc1)NC(=O)OCc1ccccc1`
*A* 1611111

*Q* Give RD(K2nd(M-1s-1)) for the following molecule: `CCOC(=O)/C=C/C(=O)[C@H](C)NC(=O)[C@H](Cc1ccccc1)NC(=O)OCc1ccccc1`
*A* 6481

*Q* Give RD(K2nd(M-1s-1)) for the following molecule: `CCOC(=O)/C=C/[C@@H](O)[C@H](CCc1ccccc1)NC(=O)[C@H](Cc1ccccc1)NC(=O)N1CCOCC1`
*A* 36735

*Q* Give RD(K2nd(M-1s-1)) for the following molecule: `CC(C)C[C@H](NC(=O)[C@H](Cc1ccccc1)NC(=O)OCc1ccccc1)C(=O)/C=C/S(=O)(=O)c1ccccc1`
*A* 1361750

*Q* Give RD(K2nd(M-1s-1)) for the following molecule: `CCOC(=O)/C=C/[C@@H](O)[C@H](CCc1ccccc1)NC(=O)[C@H](Cc1ccccc1)NC(=O)OCc1ccccc1`
*A* 3207
